Where do the numbers come from? From patent US7964629B2.

# experimental_system: recombinant human Icmt (Homo sapiens, UniProt O60725)
# Construct: recombinant baculovirus containing the entire open reading frame of the human Icmt cDNA; made in house; host or cells: Sf9 insect cells (baculovirus); membrane fraction used
# Sequence (O60725 whole entry): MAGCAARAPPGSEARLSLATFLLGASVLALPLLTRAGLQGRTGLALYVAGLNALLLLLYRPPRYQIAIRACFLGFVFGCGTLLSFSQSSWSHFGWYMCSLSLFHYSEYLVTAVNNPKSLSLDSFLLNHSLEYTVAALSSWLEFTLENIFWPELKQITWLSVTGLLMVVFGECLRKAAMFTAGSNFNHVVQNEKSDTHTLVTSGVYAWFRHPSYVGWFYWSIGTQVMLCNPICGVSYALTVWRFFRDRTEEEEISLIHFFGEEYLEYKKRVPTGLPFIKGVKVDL
# test_name: Icmt assay: [3H]methyl incorporation from [3H]AdoMet into BFC
# Assay type: biochemical
# condition_set: BFC substrate; substrates and inhibitor premixed, reaction initiated by addition of enzyme; read-out: IC50 for Icmt inhibition
parameter_measured: pIC50
Give bare numbers, as −log10 of the molar value.

Q) # lookup: recombinant human Icmt (Homo sapiens, UniProt O60725) pIC50, key = CCCCCCCCn1cc(CC(N)=O)c2cc(-c3cccc(C)c3)ccc21
A) 5.62

###

# experimental_system: recombinant human Icmt (Homo sapiens, UniProt O60725)
# Construct: recombinant baculovirus containing the entire open reading frame of the human Icmt cDNA; made in house; host or cells: Sf9 insect cells (baculovirus); membrane fraction used
# test_name: Icmt assay: [3H]methyl incorporation from [3H]AdoMet into BFC
# Format: biochemical
# condition_set: Table 3, without pre-incubation of the enzyme with the compound; read-out: IC50 No PI
parameter_measured: IC50 (nM)
One number for each entry, in nM.

Q) # lookup: recombinant human Icmt (Homo sapiens, UniProt O60725) IC50, key = CCCCCCCCn1cc(CC(N)=O)c2cc(-c3cccc(C)c3)ccc21
A) 2100

###

# experimental_system: recombinant human Icmt (Homo sapiens)
# Construct: recombinant baculovirus containing the entire open reading frame of the human Icmt cDNA; made in house; host or cells: Sf9 insect cells (baculovirus); membrane fraction used
# test_name: Icmt assay: [3H]methyl incorporation from [3H]AdoMet into BFC
# Type: biochemical
# condition_set: Table 2, no pre-incubation; read-out: IC50
pIC50: −log10 of the molar value.
Hi, to clarify the labels: 1 covers pIC50 from 5 upward, 0 covers anything below 5.

Q) Identify whether the reported pIC50 of the following compound is 5 or greater: CCCCCCCCn1cc(CC=O)c2cc(-c3ccc(Oc4ccccc4)cc3)ccc21
A) 1

Q) Identify whether the reported pIC50 of the following compound is 5 or greater: O=CCc1cn(Cc2cccc(C(F)(F)F)c2)c2ccc(-c3ccc(F)c(Cl)c3)cc12
A) 1

Q) Identify whether the reported pIC50 of the following compound is 5 or greater: O=CCc1cn(Cc2ccccc2)c2ccc(-c3cc(C(F)(F)F)cc(C(F)(F)F)c3)cc12
A) 0

Next:
Q) Identify whether the reported pIC50 of the following compound is 5 or greater: O=CCc1cn(CCCOc2ccccc2)c2ccc(-c3ccc(Oc4ccccc4)cc3)cc12
A) 0

###

# experimental_system: recombinant human Icmt (Homo sapiens)
# Construct: recombinant baculovirus containing the entire open reading frame of the human Icmt cDNA; made in house; host or cells: Sf9 insect cells (baculovirus); membrane fraction used
# test_name: Icmt assay: [3H]methyl incorporation from [3H]AdoMet into BFC
# Format: biochemical
# condition_set: Table 2, no pre-incubation; read-out: IC50
parameter_measured: pIC50
Give bare numbers, as −log10 of the molar value.

Would you please look over these solved cases?
Q) Return pIC50 for the following compound: CC(C)Cn1cc(CC=O)c2cc(-c3cc(C(F)(F)F)cc(C(F)(F)F)c3)ccc21
A) 5.10

Q) Return pIC50 for the following compound: O=CCc1cn(Cc2ccc3ccccc3c2)c2ccc(-c3ccc(Oc4ccccc4)cc3)cc12
A) 4.70

Q) Return pIC50 for the following compound: O=CCc1cn(Cc2cccc(C(F)(F)F)c2)c2ccc(-c3ccc(Oc4ccccc4)cc3)cc12
A) 5.15

Q) Return pIC50 for the following compound: CCCCCCCCn1cc(CC=O)c2cc(-c3cccc(F)c3)ccc21
A) 5.52

Q) Return pIC50 for the following compound: CCCCCCn1cc(CC=O)c2cc(-c3ccc(Oc4ccccc4)cc3)ccc21
A) 4.70

Next:
Q) Return pIC50 for the following compound: O=CCc1cn(Cc2ccccc2)c2ccc(-c3ccc(Oc4ccccc4)cc3)cc12
A) 5.15

###

Exercise: state measured pIC50 for each of the molecules provided.
# experimental_system: recombinant human Icmt (Homo sapiens, UniProt O60725)
# Construct: recombinant baculovirus containing the entire open reading frame of the human Icmt cDNA; made in house; host or cells: Sf9 insect cells (baculovirus); membrane fraction used
# test_name: Icmt assay: [3H]methyl incorporation from [3H]AdoMet into BFC
# Assay type: biochemical
# condition_set: Table 2, no pre-incubation; read-out: IC50
Give bare numbers, as −log10 of the molar value.

Would you please look over these solved cases?
Q) Return pIC50 for the following molecule: CCCCCCn1cc(CC=O)c2cc(-c3cccc(C)c3)ccc21 [9J22/A119020]
A) 5.15

Q) Return pIC50 for the following molecule: CC(C)(C)c1ccc(Cn2cc(CC=O)c3cc(-c4cc(C(F)(F)F)cc(C(F)(F)F)c4)ccc32)cc1 [9B4/A119024]
A) 5.40

Now for the molecule whose pIC50 we want.
Q) Return pIC50 for the following molecule: Cc1ccc(-c2ccc3c(c2)c(CC=O)cn3Cc2cccc(C(F)(F)F)c2)cc1 [9H4/A119034]
A) 5.15

###

# experimental_system: recombinant human Icmt (Homo sapiens, UniProt O60725)
# Construct: recombinant baculovirus containing the entire open reading frame of the human Icmt cDNA; made in house; host or cells: Sf9 insect cells (baculovirus); membrane fraction used
# test_name: Icmt assay: [3H]methyl incorporation from [3H]AdoMet into BFC
# Type: biochemical
# condition_set: Table 3, pre-incubation with Icmt for 30 min at 37° C.; read-out: IC50 PI (converted)
Field 'label' (enum: class 1 / class 0). Set to class 1 when IC50 is strictly under 2000 nM; else class 0.

Example cases with answers are listed next.
Q) Is the reported IC50 for CCCCCCCCn1cc(CC(N)=O)c2cc(-c3cccc(C)c3)ccc21 [cysmethynil] strictly below 2000 nM?
A) class 1

Q) Is the reported IC50 for CCCCCCn1cc(CC(N)=O)c2cc(-c3cccc(C)c3)ccc21 [(c1)/drawing 2] strictly below 2000 nM?
A) class 1

Q) Is the reported IC50 for Cc1cccc(-c2ccc3c(c2)c(CC(N)=O)cn3Cc2ccccc2)c1 [(e1)/drawing 2] strictly below 2000 nM?
A) class 0

Q) Is the reported IC50 for Cc1cccc(-c2ccc3c(c2)c(CC(N)=O)cn3CC(C)C)c1 [(a1)/drawing 2] strictly below 2000 nM?
A) class 0

Q) Is the reported IC50 for Cc1cccc(-c2ccc3c(c2)c(CC(N)=O)cn3CC2CC2)c1 [(b1)/drawing 2] strictly below 2000 nM?
A) class 0

Let's switch to this molecule now.
Q) Is the reported IC50 for Cc1cccc(-c2ccc3c(c2)c(CC(N)=O)cn3Cc2cccc(C(F)(F)F)c2)c1 [(g1)/drawing 2] strictly below 2000 nM?
A) class 1

###

# experimental_system: recombinant human Icmt (Homo sapiens)
# Construct: recombinant baculovirus containing the entire open reading frame of the human Icmt cDNA; made in house; host or cells: Sf9 insect cells (baculovirus); membrane fraction used
# test_name: Icmt assay: [3H]methyl incorporation from [3H]AdoMet into BFC
# Assay type: biochemical
# condition_set: Table 2, no pre-incubation; read-out: IC50
Exercise: state measured IC50 for each of the compounds provided.
Numbers only, in µM.

Would you please look over these solved cases?
Q) Return IC50 for the following compound: CC(C)(C)c1ccc(Cn2cc(CC=O)c3cc(-c4cccc(F)c4)ccc32)cc1 [9B12/A119029]
A) 4

Q) Return IC50 for the following compound: COc1ccccc1-c1ccc2c(c1)c(CC=O)cn2Cc1ccc2ccccc2c1 [9N12/A119075]
A) 18

Q) Return IC50 for the following compound: CCCCCCCCn1cc(CC=O)c2cc(-c3ccccc3OC)ccc21 [9J16/A119043]
A) 5

Q) Return IC50 for the following compound: CCCCCCn1cc(CC=O)c2cc(-c3ccc(C)cc3)ccc21 [9L4/A119018]
A) 23

Q) Return IC50 for the following compound: Cc1cccc(-c2ccc3c(c2)c(CC=O)cn3Cc2ccc3ccccc3c2)c1 [9N22/A119076]
A) 20

Now for the compound whose IC50 we want.
Q) Return IC50 for the following compound: CCOc1cccc(-c2ccc3c(c2)c(CC=O)cn3Cc2ccc(C(C)(C)C)cc2)c1 [9B6/A119030]
A) 3

###

# experimental_system: recombinant human Icmt (Homo sapiens, UniProt O60725)
# Construct: recombinant baculovirus containing the entire open reading frame of the human Icmt cDNA; made in house; host or cells: Sf9 insect cells (baculovirus); membrane fraction used
# test_name: Icmt assay: [3H]methyl incorporation from [3H]AdoMet into BFC
# Type: biochemical
# condition_set: Table 2, no pre-incubation; read-out: IC50
parameter_measured: pIC50
Answers are plain numbers, as −log10 of the molar value.

Q) Return pIC50 for the following compound: CCCCCCCCn1cc(CC=O)c2cc(-c3ccc(F)c(Cl)c3)ccc21 [9L8/A119041]
A) 6.00

Q) Return pIC50 for the following compound: CCCCCCn1cc(CC=O)c2cc(-c3ccc(F)c(Cl)c3)ccc21 [9F18/A119017]
A) 5.15

Q) Return pIC50 for the following compound: CCCCCCCCn1cc(CC=O)c2cc(-c3ccc(C)cc3)ccc21 [9L6/A119042]
A) 5.05

Q) Return pIC50 for the following compound: O=CCc1cn(CC2CC2)c2ccc(-c3cc(C(F)(F)F)cc(C(F)(F)F)c3)cc12 [9H12/A119056]
A) 4.70

Q) Return pIC50 for the following compound: CC(C)(C)c1ccc(Cn2cc(CC=O)c3cc(-c4ccc(F)c(Cl)c4)ccc32)cc1 [9N6/A119025]
A) 5.30

Give me pIC50 for each of these compounds, listed below.
1. CCCCCCn1cc(CC=O)c2cc(-c3cccc(OCC)c3)ccc21 [9H10/A119022]
2. CCCCCCCCn1cc(CC=O)c2cc(-c3cccc(OCC)c3)ccc21 [9F20/A119046]

A)
5.15
5.70
